# ASSAY NAME: serotonin-gated TRPC4 signal block – cell-based, second counter screen, HEK293 TRPC4/5HT1a, Fluo-4, counter-screen for TRPC4 inhibitor project, confirmation (AID 434978)
# EXPERIMENTAL CONDITIONS: Fluo-4 calcium flux, at 10 µM, serotonin added to trigger calcium flux
The source made the active and inactive calls.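 Rule for the calls: active = primary screen active whose calcium signal fell more than 3 SD beyond the full-serotonin control mean in both duplicate plates; inactive = the rest.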
Select the correct class. Options are active, inactive and nothing else.

The following compounds have reported results that may help.
>>> print(df.to_string())
                                   compound  qualitative_label
0  COc1cc(S(=O)(=O)N2CCC(N3CCCCC3)CC2)ccc1-n1cnnn1           inactive
1  CCCCNc1c(-c2ccc(SC(C)CC)c(OC)c2)nc2ccc(C)cn12 (stereo not given)           inactive
2  CCCCN(CC)CCNC(=O)c1cc2c(-c3ccc(Cl)cc3)nn(C)c2s1           inactive
3  COc1ccc(-n2c3c(cc(C(=O)NCc4ccco4)c2=O)C(=O)CC(C)(C)C3)cc1           inactive

Continue with the compound presented below.
Query string: Can you look up the reported call for Cc1cccc(Cn2c(C(C)(C)C)cc3cccnc32)c1 for me?
Result string: active
